Recorded melting point values for a group of molecules are listed next.

Indicate the recorded melting point value for this molecule: COc1cc2c(cc1OCc1ccccc1)CCN(Cc1cccc(O)c1)C2
78 to 79 °C

* * *

Tested on: DU145 cells
testSummary: Antiproliferative assay in DU145 cells, WST-1 cell proliferation assay, 96 hours (GI50)
Assay type: cell-based
studyConditions: Homo sapiens, DU-145, 96 hours post-treatment, triplicate
recordedEndpoint: GI50

Solved entries (count: 4):
Indicate the recorded GI50 value for this compound: COc1cc2c(cc1O)CCN(C(=O)c1cc(OC)c(OC)c(OC)c1)C2=O
< 10 µM

Indicate the recorded GI50 value for this compound: COc1cc2c(cc1OCc1ccccc1)CCN(S(=O)(=O)c1cccc(OC(F)(F)F)c1)C2
> 100 µM

Indicate the recorded GI50 value for this compound: COc1cc(OC)cc(C(=O)N2CCc3cc(O)c(OC)cc3C2=O)c1
< 10 µM

Indicate the recorded GI50 value for this compound: COc1cc2c(cc1O)CCN(Cc1cccc(C#N)c1)C2
> 100 µM

Consider the record given below.
Indicate the recorded GI50 value for this compound: COc1cccc(C(=O)N2CCc3cc(O)c(OC)cc3C2)c1
10 to 50 µM

* * *

Tested on: DU145 cells
testSummary: Antiproliferative assay in DU145 cells, WST-1 cell proliferation assay, 96 hours (GI50)
Assay type: cell-based
studyConditions: Homo sapiens, DU-145, 96 hours post-treatment, triplicate
Recorded GI50 values for a group of compounds are listed next.

Solved entries (count: 4):
Indicate the recorded GI50 value for this compound: COc1cc(CN2CCc3cc(O)c(OC)cc3C2)cc(OC)c1
50 to 100 µM

Indicate the recorded GI50 value for this compound: COc1cc2c(cc1OCc1ccccc1)CCN(Cc1cc(OC)c(OC)c(OC)c1)C2=O
> 100 µM

Indicate the recorded GI50 value for this compound: COc1cc2c(cc1OCc1ccccc1)CCN(Cc1cccc(C)c1)C2
> 100 µM

Indicate the recorded GI50 value for this compound: COc1cc2c(cc1O)CCN(C(=O)c1ccc(OC)c(OC)c1)C2
> 100 µM

---
Indicate the recorded GI50 value for this compound: COc1cccc(S(=O)(=O)N2CCc3cc(O)c(OC)cc3C2=O)c1
> 100 µM

Indicate the recorded GI50 value for this compound: COc1ccc(CN2CCc3cc(O)c(OC)cc3C2=O)cc1
> 100 µM

Indicate the recorded GI50 value for this compound: COc1cc(CN2CCc3cc(OCc4ccccc4)c(OC)cc3C2=O)cc(OC)c1
> 100 µM

Indicate the recorded GI50 value for this compound: COc1cc2c(cc1OCc1ccccc1)CCN(S(=O)(=O)c1ccccc1OC)C2=O
> 100 µM

Indicate the recorded GI50 value for this compound: COc1cc2c(cc1O)CCN(Cc1ccccc1)C2
> 100 µM

Indicate the recorded GI50 value for this compound: COc1ccc(C(=O)N2CCc3cc(OCc4ccccc4)c(OC)cc3C2=O)cc1
> 100 µM

Indicate the recorded GI50 value for this compound: COc1cc2c(cc1O)CCN(S(=O)(=O)c1cccc(C#N)c1)C2
> 100 µM

Indicate the recorded GI50 value for this compound: COc1cc2c(cc1OCc1ccccc1)CCN(S(=O)(=O)c1cccc(Cl)c1)C2
> 100 µM

Indicate the recorded GI50 value for this compound: CCOc1cccc(CN2CCc3cc(O)c(OC)cc3C2)c1
> 100 µM

* * *

Recorded melting point values for a group of molecules are listed next.

Solved entries (count: 3):
Indicate the recorded melting point value for this molecule: COc1cc(OC)c(OC)cc1CN1CCc2cc(O)ccc2C1
188 to 191 °C

Indicate the recorded melting point value for this molecule: COc1cc2c(cc1OCc1ccccc1)CCN(Cc1ccccc1)C2
97 to 98 °C

Indicate the recorded melting point value for this molecule: COc1cccc(CN2CCc3cc(O)c(OC)cc3C2)c1
161 to 162 °C

---
Indicate the recorded melting point value for this molecule: COc1cccc(CN2CCc3cc(O)ccc3C2)c1
223 to 224 °C

Indicate the recorded melting point value for this molecule: COc1cc2c(cc1O)CCCN(Cc1ccccc1OC)C2
136 to 137 °C

Indicate the recorded melting point value for this molecule: COc1cc2c(cc1O)CCN(Cc1ccccc1OC)C2
128 to 129 °C

Indicate the recorded melting point value for this molecule: COc1cccc(C(=O)N2CCc3cc(O)ccc3C2)c1OC
167 to 172 °C

Indicate the recorded melting point value for this molecule: COc1ccc(CN2CCc3cc(OCc4ccccc4)c(OC)cc3C2)cc1
96 to 97 °C

Indicate the recorded melting point value for this molecule: CCOc1cc(CN2CCc3cc(O)ccc3C2)cc(OCC)c1OCC
140 to 142 °C

Indicate the recorded melting point value for this molecule: COc1cc2c(cc1O)CCN(S(=O)(=O)c1cccc(Cl)c1)C2
175 to 178 °C

* * *

recordedEndpoint: melting point

Solved entries (count: 4):
Indicate the recorded melting point value for this compound: COc1cccc(CN2Cc3cc(OC)c(OCc4ccccc4)cc3C(O)C2)c1 (centres unmarked)
115 to 116 °C

Indicate the recorded melting point value for this compound: COc1ccc(CCN2CCc3cc(O)c(OC)cc3C2)cc1
170 to 171 °C

Indicate the recorded melting point value for this compound: COc1cc(OC)c(C(=O)N2CCc3cc(O)ccc3C2)cc1OC
180 to 188 °C

Indicate the recorded melting point value for this compound: COc1cc2c(cc1O)CCN(Cc1cccc(C(C)=O)c1)C2
132 to 134 °C

Consider the record given below.
Indicate the recorded melting point value for this compound: COc1ccc(OC)c(C(=O)N2CCc3cc(O)ccc3C2)c1
61 to 86 °C

* * *

recordedEndpoint: melting point

Solved entries (count: 4):
Indicate the recorded melting point value for this molecule: COc1cc2c(cc1OS(N)(=O)=O)CC(C)(C)N(C(=O)c1cc(OC)c(OC)c(OC)c1)C2
172 to 176 °C

Indicate the recorded melting point value for this molecule: COc1cc2c(cc1O)CCN(S(=O)(=O)c1cccc(OC(F)(F)F)c1)C2
202 to 203 °C

Indicate the recorded melting point value for this molecule: CCOC1CN(Cc2cccc(OC)c2)Cc2cc(OC)c(O)cc21 (stereo not shown)
134 to 135 °C

Indicate the recorded melting point value for this molecule: COc1cc2c(cc1O)CCN(C(=O)c1ccccc1OC)C2
176 to 177 °C

---
Indicate the recorded melting point value for this molecule: COc1cc2c(cc1O)CC(C)(C)N(C(=O)c1cc(OC)c(OC)c(OC)c1)C2C (stereo not shown)
198 to 200 °C

Indicate the recorded melting point value for this molecule: COc1cc2c(cc1O)CCN(Cc1cccc(O)c1)C2
177 to 178 °C

Indicate the recorded melting point value for this molecule: COc1ccc(OC)c(CN2CCc3cc(O)ccc3C2)c1
178 to 192 °C

Indicate the recorded melting point value for this molecule: COc1cc(CC(=O)N2CCc3cc(O)ccc3C2)cc(OC)c1OC
37 to 53 °C

Indicate the recorded melting point value for this molecule: COc1ccccc1CN1CCc2cc(OCc3ccccc3)c(OC)cc2C1
85 to 86 °C

Indicate the recorded melting point value for this molecule: COc1cc2c(cc1O)CCN(CC(=O)c1ccc(OC)c(OC)c1)C2
149 to 150 °C

Indicate the recorded melting point value for this molecule: COc1cc2c(cc1O)CCN(Cc1cccc(C#N)c1)C2
113 to 155 °C

Indicate the recorded melting point value for this molecule: COc1cc2c(cc1O)CCN(Cc1ccc(OC)c(OC)c1OC)C2
65 to 66 °C

Indicate the recorded melting point value for this molecule: COc1cc(CN2CCc3cc(O)c(OC)cc3C2=O)cc(OC)c1
166 to 167 °C

* * *

Recorded melting point values for a group of compounds are listed next.

Indicate the recorded melting point value for this compound: CCOC1CN(Cc2cc(OC)c(OC)c(OC)c2)Cc2cc(OC)c(OCc3ccccc3)cc21 (stereo not drawn) [F26]
132 to 133 °C

---
Indicate the recorded melting point value for this compound: COc1cc2c(cc1OCc1ccccc1)CCN(Cc1cccc(C)c1)C2 [compound 7]
81 to 82 °C

* * *

Recorded melting point values for a group of compounds are listed next.

Indicate the recorded melting point value for this compound: COc1cc2c(cc1O)CCCC(=O)N2Cc1cc(OC)c(OC)c(OC)c1 [compound 319]
170 to 171 °C

---
Indicate the recorded melting point value for this compound: COc1cc(O)c(CN2CCc3cc(O)ccc3C2)c(OC)c1 [B28]
109 to 112 °C

Indicate the recorded melting point value for this compound: COc1cc2c(cc1OCc1ccccc1)CCN(Cc1cccc(F)c1)C2 [compound 22]
77 to 79.5 °C

* * *

Recorded GI50 values for a group of molecules are listed next.
Test system: DU145 cells
testSummary: Antiproliferative assay in DU145 cells, WST-1 cell proliferation assay, 96 hours (GI50)
Assay type: cell-based
studyConditions: Homo sapiens, DU-145, 96 hours post-treatment, triplicate

Indicate the recorded GI50 value for this molecule: COc1cc2c(cc1O)CCN(Cc1cc(OC)c(OC)c(OC)c1)C2 [compound 54]
< 10 µM

Indicate the recorded GI50 value for this molecule: COc1cc2c(cc1O)CCN(Cc1cc(OC)c(OC)cc1OC)C2 [compound 59]
< 10 µM

Indicate the recorded GI50 value for this molecule: COc1cccc(CN2CCc3cc(OCc4ccccc4)c(OC)cc3C2)c1 [compound 4]
50 to 100 µM

Indicate the recorded GI50 value for this molecule: COc1cc2c(cc1OCc1ccccc1)CCN(S(=O)(=O)c1cccc(Cl)c1)C2=O [compound 199]
> 100 µM

Indicate the recorded GI50 value for this molecule: COc1cc2c(cc1O)CCN(S(=O)(=O)c1cccc(C(F)(F)F)c1)C2 [compound 181]
> 100 µM

---
Indicate the recorded GI50 value for this molecule: COc1cc2c(cc1O)CCN(S(=O)(=O)c1cccc(Cl)c1)C2 [compound 182]
> 100 µM
